# experiment_description: NCI Yeast Anticancer Drug Screen. Data for the mec2-1 strain (AID 157)
# test_conditions: S. cerevisiae mec2-1 strain, at 50.0 µM (retest, dose inferred, filed as 5.0)
The panel holds about 79,000 compounds, 15% with a hit somewhere; the sample as a whole holds those more often. Activity calls are given as the source filed them. No stated cut-off is given here; in the data, active means growth inhibition above about 70%; inactive means the rest.
Outcome (select one): active, inactive

Example results:
INSERT INTO results (compound, class_name) VALUES
  ('CC(C)(C)c1ccc(C(C)(C)C)cc1', 'inactive'),
  ('COC1CC(OC(=O)c2ccccc2)C(OC(=O)c2ccccc2)C(C)O1 (stereo unspecified)', 'inactive'),
  ('Cc1cc(Cl)ccc1N1C(=O)C(=O)C(c2nc3ccccc3o2)C(=O)C1=O', 'active'),
  ('Oc1cccnc1CN1CCCCC1', 'inactive'),
  ('Cc1cc(O)n(Cc2ccccc2)c(=O)c1', 'inactive');

Each compound tested received a call. Report the one for COC1=CC2=CCC3C(CCC4(C)C(C(C)=O)CCC34)C2(C)CC1 (stereo unspecified) .
inactive

Measured values drawn from PubChem BioAssay (NCI) for this set.
